Just for reference, patent US4691017A is where these values come from.

Test system: Gastric necrosis (gastric oedema and haemorrhagic injury)
TEST PROTOCOL: Gastric necrosis induced by acidic ethanol (cytoprotective activity)
Format: in vivo, Female RG-Wistar rats
EXPERIMENTAL CONTEXT: Rattus norvegicus, po, 1 h; acidic ethanol, p.o.; read-out: Gastric oedema inhibition ED50
Description: Water was given ad libitum. […] One hour later the animals were killed by overdosing with ether. Stomachs were removed and opened along the major curvature. After cleaning the wet weight of the stomachs was determined, and the difference between the wet weight obtained and the wet weight of the stomachs of untreated (control) animals was calculated, in order to determine the degree of gastric oedema. […] Lengths of lesions were measured in millimeters. […]
Structures can show the parent of a compound that is named as a salt.
ENDPOINT LABEL: ED50 (mg/kg)

compound=NCCSc1ncccc1C(=O)c1ccc(Cl)cc1 recorded_result=10
compound=NCCSc1ncccc1C(=O)c1ccccc1 recorded_result=0.2
compound=Cc1ccc(C)c(C(=O)c2cccnc2SCCN)c1 recorded_result=10
compound=CC(=O)N(CCSc1ncccc1C(=O)c1ccccc1)C(C)=O recorded_result=1
compound="CCCc1cc(C(=O)c2ccccc2)cc(SCCN)n1 [Compound E, HCl]" recorded_result=20
